target: human Edg-1 (S1P1) (Homo sapiens, UniProt P21453); construct: expressed in transfected cells; host or cells: HEK-293; assay: S1P1 binding inhibition test (membrane, [33P]-S1P); settings: compound 10 μM; [33P]-S1P 0.1 nM; human Edg-1 (S1P1) HEK-293 membrane fraction; read-out: Binding test (membrane) % inhibition (10 μM)
Sequence (P21453 whole entry): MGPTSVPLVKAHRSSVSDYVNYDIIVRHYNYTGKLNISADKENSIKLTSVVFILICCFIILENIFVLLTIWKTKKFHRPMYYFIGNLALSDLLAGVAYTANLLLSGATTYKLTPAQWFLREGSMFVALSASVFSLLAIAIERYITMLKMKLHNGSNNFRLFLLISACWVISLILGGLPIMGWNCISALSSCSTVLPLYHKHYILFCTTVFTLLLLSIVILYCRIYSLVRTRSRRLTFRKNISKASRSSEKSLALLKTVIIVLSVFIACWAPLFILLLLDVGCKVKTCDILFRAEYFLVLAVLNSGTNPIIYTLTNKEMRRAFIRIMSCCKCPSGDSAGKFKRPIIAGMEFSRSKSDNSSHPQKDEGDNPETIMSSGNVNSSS
readout label: inhibition at 10 µM (%)
Value expressed in %; do not type the unit.

compound	inhibition at 10 µM [%]
CCn1c(C(C)NS(=O)(=O)c2c(F)c(Br)cc(F)c2Br)cnc1Oc1ccc(C)cc1 (stereo not shown)	78.2
CCn1c(C(Cc2ccc(F)cc2)NS(=O)(=O)c2ccc(Cl)c(Cl)c2)cnc1Oc1ccc(F)cc1 (stereo not shown)	97.3
CCn1c(C(C)NS(=O)(=O)c2ccc(Cl)c(Cl)c2)cnc1Sc1ccc(C)cc1 (stereo not shown)	82.6

Let us move to another entry and its inhibition at 10 µM.
Asked: What value of inhibition at 10 µM has been recorded for this entry: CCn1c(C(C)NS(=O)(=O)c2ccc3ccccc3c2)cnc1Oc1ccc(C)cc1 (stereo not shown)
Given back: 114

Where do the numbers come from? From patent US7994204B2.
